Origin of values: ChEMBL document CHEMBL1255399

Tested on: Haemophilus influenzae
MEASUREMENT_DESCRIPTION: Antimicrobial activity against Haemophilus influenzae Rd KW20 harboring with plasmid pB1000 bearing beta-lactamase ROB-1 by broth microdilution method
Format: functional
OBSERVABLE: MIC (µg/mL)
# value in µg/mL; strip the unit string

N[C@@H](C(=O)N[C@@H]1C(=O)N2C(C(=O)O)=C(Cl)CS[C@H]12)c1ccccc1 [CEFACLOR ANHYDROUS]; 64
C=CC1=C(C(=O)O)N2C(=O)[C@@H](NC(=O)/C(=N\OCC(=O)O)c3csc(N)n3)[C@H]2SC1 [CEFIXIME]; 0.06

Fill blank: measured MIC of the compound CO/N=C(\C(=O)N[C@@H]1C(=O)N2C(C(=O)O)=C(COC(N)=O)CS[C@H]12)c1ccco1 [CEFUROXIME] is ____.
4

Sample C[C@@H](O)[C@H]1C(=O)N2C(C(=O)O)=C(SCCNC=N)C[C@H]12 [IMIPENEM ANHYDROUS] — what was its MIC?
1
